Tested on: UACC-62 melanoma
Assay: NCI tumour cell line growth inhibition, 48 h
experimentalReadout: TGI

Completed entries (count: 3):
Cc1cc(CC(C)CC(C)(C)C)n(O)c(=O)c1 (centres undefined) (tested in a mixture with another compound)
1.08 µM
COc1ccc2nc3cc([N+](=O)[O-])ccc3c(NCCCN(C)C)c2c1
1.64 µM
CC(C)(C)[Si](C)(C)OC1[C@@H](O[Si](C)(C)C(C)(C)C)[C@@H](CNC(=O)NC(=O)CCl)O[C@H]1n1cnc2c(NC(=O)Nc3ccccc3)ncnc21 (some centres undefined)
1.6 µM

Pending molecule:
Specify measured TGI for O=c1[nH]nc(Cc2ccccc2)n1CCO .
> 100 µM

* * *

Test system: SNB-75 CNS
Assay: NCI tumour cell line growth inhibition, 48 h
Assign TGI to each entry below.
One number for each entry, in µM.

CC(C)(C)[Si](C)(C)OC1[C@@H](O[Si](C)(C)C(C)(C)C)[C@@H](CNC(=O)NC(=O)CCl)O[C@H]1n1cnc2c(NC(=O)Nc3ccccc3)ncnc21 (stereo not given in full)
1.28

// each compound listed below needs its TGI
1. COC(=O)N1CC2C3C4CC(C(c5ccccc5)=C4c4ccccc4)C3C21 (stereo not given)
2. Nc1nc(N)c2cc(NCc3ccc(Cl)c(Cl)c3)ccc2n1

[76.4, 2.48]

* * *

System: HS 578T breast
Test: NCI tumour cell line growth inhibition, 48 h; in the data active = GI50 below about 0.43 µM; inactive = the rest
Could you please pick one outcome from this set? active, inactive

COc1ccc(/C=N\Nc2ccc([N+](=O)[O-])cn2)cc1OC
inactive

Answer briefly: the call reported for CCCC(CCC)C(=O)OCC1(CO)C/C(=C\c2ccc(F)cc2)C(=O)O1 (centres undefined) in this assay.
inactive

What is the recorded call for this compound in the test? CN1C(=O)N[C@H]2[C@@H]3NC(=O)c4ccc(Br)n4[C@@H]3C[C@]21O
active

Status in this test for CCN(CC)CCCNC(=O)c1c2c(n3ccccc13)C(=O)c1ncccc1C2=O ?
inactive

Could you kindly confirm the outcome this assay logged for Cc1cc(N2CCSCC2)nc(NC2CCCC(Nc3ccnc4cc(Cl)ccc34)C2)n1 (centres undefined) ?
inactive

Write down the call the test reported for this compound. Item: CC(C)(C)[Si](C)(C)OC1[C@@H](O[Si](C)(C)C(C)(C)C)[C@@H](CNC(=O)NC(=O)CCl)O[C@H]1n1cnc2c(NC(=O)Nc3ccccc3)ncnc21 (some centres undefined)
inactive

What is the recorded call for this compound in the test? NC(=O)c1cccc(Nc2nccc(Nc3cccc4[nH]ncc34)n2)c1
inactive

Tell me the assay call for N#CCN/C=C\C(=O)c1ccc(Cl)cc1 please.
inactive

Which outcome was entered for the compound Cc1cc(C)c(Cn2cnc3c(Cl)ncnc32)c(C)c1CCl in this test?
inactive

Short answer needed: outcome of this test for O=C1/C(=C\c2ccccn2)c2ccccc2N1c1c(Cl)cccc1Cl ?
inactive

# outcome recorded in this test, key = Cc1nc(N2CCC3(CC2)CO[C@@H](C)[C@H]3N)c(CO)nc1Sc1ccnc(N)c1Cl
inactive

* * *

Answer each item with its documented TGI.
Tested on: HL-60(TB) leukemia
Assay: NCI tumour cell line growth inhibition, 48 h
One number for each entry, in µM.

Sample answers from the record:
O=C1C=CC(=O)c2cc(Sc3ccccc3)c(=O)ccc21
1.79
Cc1ccc(C)c(C2NC(=O)c3ccccc3N2)c1 (centres undefined)
0.56
CC(C)(C)C(=O)OC12/C(=N/O)CCCCCC1c1ccccc12 (centres undefined)
45.5
CCCCCCCCCCCCCCCC(=O)N(CCCCCCCCCCC(=O)O)CC(O)C(O)C(OC1OC(CO)C(O)C(O)C1O)C(O)CO (centres undefined)
47.7
CCCC(CCC)C(=O)OCC1(CO)C/C(=C\c2ccc(F)cc2)C(=O)O1 (centres undefined)
8.36
CC(C)(C)[Si](C)(C)OC1[C@@H](O[Si](C)(C)C(C)(C)C)[C@@H](CNC(=O)NC(=O)CCl)O[C@H]1n1cnc2c(NC(=O)Nc3ccccc3)ncnc21 (some centres undefined)
0.488
C=C1C(=O)O[C@@H]2C[C@]3(C)CC[C@]4(C)[C@H](CC[C@@H]5[C@@]6(C)CCC(=O)C(C)(C)[C@@H]6CC[C@]54C)[C@H]3[C@H]12
3.72
SCCSCCCSCCS
45.6
C=C1C(=O)O[C@H]2[C@@H](O)[C@H](C)CCC[C@]3(C)O[C@H]3CC[C@@]3(C)O[C@@H]3C[C@@H]12
2.03
Cc1cn([C@@H]2O[C@H](CO[Si](C)(C)C(C)(C)C)[C@]3(O[C@H]3C(=O)NN)[C@H]2O[Si](C)(C)C(C)(C)C)c(=O)[nH]c1=O
6.09

Please give TGI, item by item, for the list that follows.
1. C=C1C(=O)O[C@@H]2C=C(C)C3=CC(=O)[C@](C)(C[C@H](OC(=O)/C(C)=C\C)[C@@H]12)O3
2. CC(C)=CCC/C(C)=C/CC/C(C)=C/CC/C(=C/CC/C(C)=C\CC/C(C)=C/CC/C(C)=C/CC/C(C)=C/Cc1cc(O)ccc1O)CO

1: 0.563; 2: 9.5

* * *

Test system: OVCAR-5 ovarian
Test: NCI tumour cell line growth inhibition, 48 h
Please respond with reported TGI for every item in the list.

Take each entry in turn and give its TGI.
1. O=C(O)/C(Cc1ccc([N+](=O)[O-])cc1)=N\O
2. CN(Cc1cc(Cl)cc(Cl)c1)CC(C(=O)c1ccccc1)c1ccccc1 (centres undefined)
3. O=C(O)Cc1ccc2[nH]c(O)c(C3=Nc4ccccc4C3=O)c2c1

1: > 100 µM; 2: 19.1 µM; 3: > 100 µM

Batch of 3 molecules: report TGI for each.
1. Cc1cc(Cl)ccc1NC(=O)C(=O)C(C(=O)c1ccc2ccccc2c1)C1OC(=O)c2ccccc21 (centres undefined)
2. COc1ccc(/C=N\Nc2ccc([N+](=O)[O-])cn2)cc1OC
3. CCCCCCCCCCCCCCCCOC[C@@H](COC(c1ccccc1)(c1ccccc1)c1ccccc1)O[P+](=S)OC (some centres undefined)

1. 48.4 µM
2. > 100 µM
3. 28.7 µM

Provide reported TGI for each item, in the same order as listed.
1. CC1=NN(C(=O)c2ccc([N+](=O)[O-])cc2)C(=O)C1N=Nc1ccccc1C(=O)O (centres undefined)
2. CCCCCCCCCCCCOCCCOP(=O)([O-])OCC[N+](C)(C)C

["> 100 µM", "> 100 µM"]

# map each molecule to its TGI
1. COc1ccc(OC)c(NS(=O)(=O)c2ccc3nc(C)n(NS(=O)(=O)c4cc(OC)ccc4OC)c(=O)c3c2)c1
2. Cn1c(=O)c2nc(-c3ccc(Cl)cc3)oc2n(C)c1=O
3. CCCCCCCCCCCCCCCC(=O)N(CCCCCCCCCCC(=O)O)CC(O)C(O)C(OC1OC(CO)C(O)C(O)C1O)C(O)CO (centres undefined)

["> 100 µM", "> 100 µM", "> 100 µM"]

* * *

Tested on: SR leukemia
Assay: NCI tumour cell line growth inhibition, 48 h
Threshold check on TGI: at or above 40 µM gives TRUE, strictly below gives FALSE.

S=C(c1c[nH]c2ccccc12)N1CCN(Cc2ccccc2)CC1
TRUE
O=C(O)Cc1ccc2[nH]c(O)c(C3=Nc4ccccc4C3=O)c2c1
TRUE
OCC(O)c1nc2ccc3[nH]ncc3c2c2c1CCCC2 (stereo unspecified)
FALSE
COc1ccc(OC)c2c1[nH]c(=O)c1c3ncccc3cn21
TRUE

Confirm if TGI reported for the compound C=C1CCC2C(C)(COC(=O)CC)C(OC(=O)CC)CCC2(C)C1C/C=C1/C(=O)OCC1OC(=O)CC (stereo unspecified) is 40 µM or above.
FALSE

hey, is TGI for this one >= 40 µM? COC(=O)c1cc(O)c2c(c1C(=O)OC)C[C@H]1[C@@H]3CC=C4C[C@@H](O)CC[C@]4(C)[C@H]3CC[C@]21C
TRUE

Determine whether this compound has TGI no lower than 40 µM: Cc1ccc(NC(=O)CSc2nc(=O)[nH]c3nc[nH]c23)cc1
TRUE

Quick check: does CCOC(=O)C(NC(=O)c1ccccc1)(N1CCOCC1)C(F)(F)F (stereo unspecified) have TGI greater than or equal to 40 µM?
TRUE

In plain terms: is recorded TGI at least 40 µM for C=CCO[C@]1(CC=C)C(=O)C(=O)OC1C1COC(C)(C)O1 (stereo partly specified) ?
TRUE

Test whether the compound COc1ccc(C(=O)c2cc3c(N)c(C(=O)Nc4ccc(C)cc4)sc3nc2C)cc1 records TGI of 40 µM or higher.
TRUE

Given the entry N#CCN/C=C\C(=O)c1ccc(Cl)cc1 , answer whether its TGI meets or surpasses 40 µM.
TRUE

TGI >= 40 µM for Cc1nc(N2CCC3(CC2)CO[C@@H](C)[C@H]3N)c(CO)nc1Sc1ccnc(N)c1Cl ?
TRUE

Could you verify whether the entry CCOC(=N)/C(=C1\OC(N)=C(c2ccc(Cl)cc2)C1=O)c1ccc(Cl)cc1 shows TGI of no less than 40 µM?
TRUE

Please tell me: is the compound Cc1cc(CC(C)CC(C)(C)C)n(O)c(=O)c1 (stereo unspecified) (tested in a mixture with another compound) at or over 40 µM in terms of TGI?
FALSE

Confirm if TGI reported for the compound COc1cc(-c2nc(-c3nc4ccccc4[nH]3)cc3c2[nH]c2ccccc23)cc(OC)c1OC is 40 µM or above.
TRUE

Please tell me: is the compound CC[N+]1(C)CCC(O)(c2ccc(OC)cc2)C(C(=O)c2ccc(OC)cc2)C1 (stereo unspecified) at or over 40 µM in terms of TGI?
FALSE

API: above_or_equal(metric=TGI, cutoff=40 µM) for item COc1cccc(C2c3cc4c(cc3OC(N3CCCC3)C2C)OCO4)c1O (stereo unspecified)
FALSE

# bool: TGI of O=C1c2cc(Cl)ccc2NC(=NCCCl)C2CSCN12 (stereo unspecified) >= 40 µM
TRUE

Could you verify whether the entry CC(C)C(/C=C/c1ccc(Cl)c(Cl)c1)=N\NC(=O)N/N=C(/C=C/c1ccc(Cl)c(Cl)c1)C(C)C shows TGI of no less than 40 µM?
TRUE

Form field: TGI at least 40 µM? Entry: COc1ccc2c(c1)CC[C@H](O)/C2=C/c1cc(OC)c(OC)c(OC)c1
TRUE
